// provenance: paper PMC12416549

# target-system: T1, TNFR1 (Homo sapiens, UniProt P19438)
# T1 chain: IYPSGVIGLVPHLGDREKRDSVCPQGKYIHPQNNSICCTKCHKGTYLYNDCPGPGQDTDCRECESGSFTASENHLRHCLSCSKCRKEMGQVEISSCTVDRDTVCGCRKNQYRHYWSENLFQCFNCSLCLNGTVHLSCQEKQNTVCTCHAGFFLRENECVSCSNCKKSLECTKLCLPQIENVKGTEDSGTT
# assay: yeast display SC50
value-kind: apparent Kd (screen) (nM)
Numbers only here, please. The scale is nM.

# binder, apparent Kd (screen) [nM]
records = [
    ("K8W (designed binder) SMEEEVEWAAKEYEKKKKEAIEKHLEKLKAKDKEAAERFLKELEEAAKEYAKDEAKTMSEEEAKRRAKKYKEKVLLSELSEEEQKEIKEAEEKLVRTILKYVEEAAK", 1.54),
]

Next, consider the following binder.
# apparent Kd (screen) (binder: E82K (designed binder) SMEEEVEKAAKEYEKKKKEAIEKHLEKLKAKDKEAAERFLKELEEAAKEYAKDEAKTMSEEEAKRRAKKYKEKVLLSELSEKEQKEIKEAEEKLVRTILKYVEEAAK ) is 0.446
